Hello, the source for this data is patent US10828315B2, in case you need it.

System: human urinary bladder cancer cell line RT-112
Test: Cytotoxicity assay (CellTiter-Glo, 72 h), RT-112
Format: cell-based
Settings: RT-112, 72 hours, read-out: Cytotoxicity (IC50, nM) RT-112
Field 'label' (enum: t / f). Set to t when IC50 is strictly under 70 nM; else f.

Here's what some known entries look like.
compound=CC(C)c1cc(-c2nnc(O)n2-c2ccc(CN3CCN(C(=O)ONC(=O)CCCCCCC(=O)Nc4ccccc4)CC3)cc2)c(O)cc1O grouplabel=f
compound=CC(C)c1cc(-c2nnc(O)n2-c2ccc3c(c2)CN(C(=O)c2ccc(CCc4c[nH]c5nc(N)[nH]c(=O)c45)cc2)C3)c(O)cc1O grouplabel=f
compound=CCNC(=O)c1nnc(-c2cc(C(C)C)c(O)cc2O)n1-c1ccc(CN2CCC(C(=O)N3CCC(C(=O)N[C@H]4C[C@H](O[C@H]5C[C@](O)(C(=O)CO)Cc6c(O)c7c(c(O)c65)C(=O)c5c(OC)cccc5C7=O)O[C@@H](C)[C@H]4O)CC3)CC2)cc1 grouplabel=f
compound=COc1cccc2c1C(=O)c1c(O)c3c(c(O)c1C2=O)C[C@@](O)(/C(CO)=N/NC(=O)CCn1ccc2cc(-n4c(O)nnc4-c4cc(C(C)C)c(O)cc4O)ccc21)C[C@@H]3O[C@H]1C[C@H](N)[C@H](O)[C@H](C)O1 grouplabel=f
compound=CCNC(=O)c1nnc(-c2cc(C(C)C)c(O)cc2O)n1-c1ccc(Oc2ccc(C(=O)N[C@H]3C[C@H](O[C@H]4C[C@](O)(C(=O)CO)Cc5c(O)c6c(c(O)c54)C(=O)c4c(OC)cccc4C6=O)O[C@@H](C)[C@H]3O)cc2)cc1 grouplabel=t
compound=CCc1c2c(nc3ccc(OC(=O)N4CCC(CCn5ccc6cc(-n7c(O)nnc7-c7cc(C(C)C)c(O)cc7O)ccc65)CC4)cc13)-c1cc3c(c(=O)n1C2)COC(=O)[C@]3(O)CC grouplabel=f
compound=CC(C)c1cc(-c2nnc(O)n2-c2ccc(CN3CCN(C(=O)c4ccc(CCc5c[nH]c6nc(N)[nH]c(=O)c56)cc4)CC3)cc2)c(O)cc1O grouplabel=f
compound="Nc1cccc2c1CN(C1CCC(=O)NC1=O)C2=O (stereo not shown) [Lenalidomide, lenalidomide, reference compound]" grouplabel=f
compound="CCc1c2c(nc3ccc(O)cc13)-c1cc3c(c(=O)n1C2)COC(=O)[C@]3(O)CC [SN-38, reference compound]" grouplabel=t

Decide: IC50 of CCNC(=O)c1nnc(-c2cc(C(C)C)c(O)cc2O)n1-c1ccc(OC2CCN(c3cnc(C(=O)N[C@H]4C[C@H](O[C@H]5C[C@](O)(C(=O)CO)Cc6c(O)c7c(c(O)c65)C(=O)c5c(OC)cccc5C7=O)O[C@@H](C)[C@H]4O)cn3)CC2)cc1 strictly below 70 nM?
t

* * *

% Remaining (1 h): recorded values
Settings: mouse, plasma, 1 h, 10 µM
Return type: number; implicit unit %.

molecule=COc1ccc(-c2cnoc2-c2cc(OC)c(OC)c(OC)c2)cc1OC(=O)N1CCN(c2ccc(-n3c(O)nnc3-c3cc(C(C)C)c(O)cc3O)cc2)CC1 obsvalue=95.2

Any idea what its % Remaining (1 h) is? The molecule is CC(C)c1cc(-c2nnc(O)n2-c2ccc(CN3CCN(C(=O)COC(=O)Nc4cccc5c4CN(C4CCC(=O)NC4=O)C5=O)CC3)cc2)c(O)cc1O (centres unmarked)
89.1

Any idea what its % Remaining (1 h) is? The molecule is CCNC(=O)c1nnc(-c2cc(C(C)C)c(O)cc2O)n1-c1ccc(Oc2ccc(C(=O)NC(Cc3ccccc3)C(=O)Nc3cc(-c4cnoc4-c4cc(OC)c(OC)c(OC)c4)ccc3OC)cc2)cc1 (centres unmarked)
92.7

Any idea what its % Remaining (1 h) is? The molecule is CC(C)c1cc(-c2nnc(O)n2-c2ccc(CC3CCN(CC(=O)Nc4cccc5c4CN(C4CCC(=O)NC4=O)C5=O)CC3)cc2)c(O)cc1O (centres unmarked)
91.1

Any idea what its % Remaining (1 h) is? The molecule is CCNC(=O)c1nnc(-c2cc(C(C)C)c(O)cc2O)n1-c1ccc(CN2CCC(C(=O)N[C@H](C(=O)Nc3cccc4c3CN(C3CCC(=O)NC3=O)C4=O)C(C)C)CC2)cc1 (some centres unmarked)
93.0
